- assay_target: T1, soluble extracellular domain of human PD-1 (human, UniProt Q15116 25-170)
- T1 construct: extracellular domain
- T1 sequence (Q15116 25-170): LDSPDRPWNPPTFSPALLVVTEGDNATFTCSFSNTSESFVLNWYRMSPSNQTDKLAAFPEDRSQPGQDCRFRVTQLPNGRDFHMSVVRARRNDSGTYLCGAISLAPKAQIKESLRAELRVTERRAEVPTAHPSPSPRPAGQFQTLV
- test_summary: BLI (ForteBio Octet Red), antibody on the biosensor, soluble PD-1 ECD as analyte
Reported kon values are given for each entry in this list.
Give just the number in M⁻¹ s⁻¹; leave the unit off.

100413_D2VH9_100414_D2VK6 (antibody, V domains shown, Mouse variable regions; cloned into pFUSE-CHIg-mG1 (murine IgG1 Fc), expressed in HEK293) VH: EVQLQESGPDLVKPSQSLSLTCTVTGYSITSGYSWHWIRQFPGNKLEWMGFIHYSGDTNYNPSLKSRFSITRDTSKNQFFLHLNSVTPEDTATYYCASPSRLLFDYWGHGTTLTVSS VL: DIVMTQSPSSLTVTAGEKVTMSCKSSQSLLNSGTQKNYLTWYQQKPGQPPKLLIYWASTRESGVPDRFTGSGSGTDFTLTISSVQAEDLAVYYCQNDYSYPLTFGAGTKLEIK; 275000

Task: kon lookup needed for 100413_E1VH9_100414_E1VK5 (antibody, V domains shown, Mouse variable regions; cloned into pFUSE-CHIg-mG1 (murine IgG1 Fc), expressed in HEK293) VH: EVQLQESGPSLVQPSQSLSITCTVSGFSLTSYGVHWVRQSPGKGLEWLGVIWRGGNTDYNAAFMSRLSITKDNSKSQVFFKMNSLQADDTAIYYCAASMIGGYWGQGTTLTVSS VL: DIVLTQTPLSLPVSLGDQASISCRSSQSIVHSNGNTYLEWYLQKPGQSPKLLIYKVSNRFSGVPDRFSGSGSGTNFTLKISRVEAEDLGVYYCFQGSHVPLTFGAGTKLELK , thanks.
Output: 507000

Task: And 100246_A10VH1_100247_A10VK3 (antibody, V domains shown, Mouse variable regions; cloned into pFUSE-CHIg-mG1 (murine IgG1 Fc), expressed in HEK293) VH: EVQLQESGPGLVKPSQSLSLTCTVTGYSITSDYAWNWIRQFPGNKLEWMGYITYSGSPTYNPSLKSQFSITRDTSKNQFFLQLNSLTTEDTATYYCARGLGGHYFDYWGQGTTLTVSS VL: DIVLTQSPDTLSVTPGDRVSLSCRASQSISDYLHWYQQKSHESPRLLIKYASQSISGIPSRFSGSGSGSDFTLSINSVEPEDVGVYYCQNGHSYPYTFGGGTKLELK ?
Output: 161000

Task: Could you do the same for 100388_D4VH3_100389_D4VK5 (antibody, V domains shown, Mouse variable regions; cloned into pFUSE-CHIg-mG1 (murine IgG1 Fc), expressed in HEK293) VH: EVQLQESGAELVRPGASVTLSCKASGYTFTDYEMHWVKQTPVHGLEWIGVIDPGTGGTAYNQKFKVKALLTADKSSNTAYMELRSLTSEDSAVYYCTSEKFGSNYYFDYWGQGTTLTVSS VL: DIVITQTPLSLPVSLGDQASISCRSSQTIVHSDGNTYLEWYLQKPGQSPKLLIYKVSNRFSGVPDRFSGSGSGTDFTLKISRVEAEDLGVYYCFQGSHVPLTFGAGTKLEIK , please?
Output: 371000
